# tested.system: CDK2 (Homo sapiens, UniProt P24941)
# Construct: purchased Carna Company
# assay.summary: CDK enzymology experiment in vitro, capillary mobility shift assay (MSA)
# Type: biochemical
# measurement.conditions: read-out: CDK2 (nM) inhibitory IC50
Entries and their measured IC50 follow.

{"columns": ["compound", "IC50"],
 "data": [
  ["CN1CCC(S(=O)(=O)N2CCC(Nc3ncc(C#N)c(NC4CCCC4)n3)CC2)CC1 [Compound 85]", "2.5 to 10 nM"],
  ["Cn1cc(S(=O)(=O)N2CCC(Nc3ncc(C(F)(F)F)c(O[C@@H]4CCOC4)n3)CC2)cn1 [Compound 88]", "0.5 to 2.5 nM"]
]}

Request: Jot down IC50 (CDK2 (Homo sapiens, UniProt P24941)) of Cn1cc(S(=O)(=O)N2CCC(Nc3ncc(C#N)c(NC4CCCC4)n3)CC2)cn1 [Compound 31] .
Result: 0.5 to 2.5 nM

Request: Jot down IC50 (CDK2 (Homo sapiens, UniProt P24941)) of N#CC1CCN(c2ccc(S(=O)(=O)N3CCC(Nc4ncc(C(F)(F)F)c(O[C@H]5CCOC5)n4)CC3)cc2)CC1 [Compound 143] .
Result: 0.5 to 2.5 nM
